Recorded CC50 at 3 days values for a group of molecules are listed next.
# test details: in vitro
# Format: cell-based
# experimental conditions: human, HepG2 or HepG2.117 cells, 3-days incubation (unmarked values), ATPlite; mean value

# input So what's the measured CC50 at 3 days for this one? COc1ccc(CNc2nc3c(c(=O)n2Cc2ccccc2)CCN(C(=O)c2ccc(Cl)c(Cl)c2)C3)cc1 [Compound C41]
# output > 50 µM

# input Please do the same for CC(C)Nc1nc2c(c(=O)n1-c1ccc(-c3ncco3)cc1)CCN(C(=O)c1ccc(Cl)c(Cl)c1)C2 [Compound C162] as well.
# output > 50 µM

Switching to the query record.
# input Look at this molecule and give its reported CC50 at 3 days. CC(C)Nc1nc2c(c(=O)n1-c1ccc(S(C)(=O)=O)cc1)CCN(C(=O)c1ccc(C(F)(F)F)c(Cl)c1)C2 [Compound C194]
# output > 50 µM

---

# Test system: HBV (HepG2.117 cell line, inducibly HBV producing)
# test details: Anti-HBV activity: intracellular HBV DNA by real-time PCR in HepG2.117 cells after 3 days of treatment
# Format: cell-based, hepatitis B virus
# experimental conditions: Hepatitis B virus, HepG2.117, 72 h, HepG2.117 cells, 3 days of treatment, intracellular HBV DNA by real-time PCR; mean value; read-out: EC50 (μM, mean value)
# Procedure: The anti HBV activity was measured using the HepG2.117 cell line, a stable, inducibly HBV producing cell line, which replicates HBV in the absence of doxycycline (Tet-off system). The HepG2 cell line is available from ATCCR under number HB-8065. Transfection of the HepG2 cell line can be as described in Sun and Nassal 2006 Journal of Hepatology 45 (2006) 636-645 “Stable HepG2- and Huh7-based human hepatoma cell lines for efficient regulated expression of infectious hepatitis B virus”. […]
measurement label: EC50 (µM)
Give the number; µM is assumed, so skip it.

These solved cases illustrate the format of a correct answer.
# input Entry under review: CNC(=O)c1ccc(-n2c(N3CCC[C@@H]3C3CC3)nc3c(c2=O)C[C@@H](C)N(C(=O)c2ccc(Cl)c(Cl)c2)C3)cc1 (single isomer, unassigned) . Reported EC50?
# output 0.29

# input Can you handle CNC(=O)c1ccc(-n2c(N3CC[C@H]3c3ccccc3)nc3c(c2=O)C[C@@H](C)N(C(=O)c2ccc(Cl)c(Cl)c2)C3)cc1 (single isomer, unassigned) next?
# output 0.32

# input Further, for "CC(C)Nc1nc2c(c(=O)n1-c1ccnnc1)CCN(C(=O)c1ccc(Cl)c(Cl)c1)C2" ?
# output 4.39

# input # repeat for "COc1ccc(CNc2nc3c(c(=O)n2-c2ccccc2Cl)CCN(C(=O)c2ccc(Cl)c(Cl)c2)C3)cc1"
# output 1.08

# input Next compound: "CC(C)Nc1nc2c(c(=O)n1-c1ccc(S(C)(=O)=O)cc1)CCN(C(=O)c1ccc3c(c1)CCO3)C2"
# output 5.29

# next compound below
# input Which value of EC50 has been reported for "CNC(=O)c1ccc(-n2c(NCc3c[nH]c4ccc(OC)cc34)nc3c(c2=O)C[C@@H](C)N(C(=O)c2ccc(Cl)c(Cl)c2)C3)cc1" in the records?
# output 1.58

---

Overview of reported EC50 across a group of compounds:
# Tested on: HBV (HepG2.117 cell line, inducibly HBV producing)
# test details: Anti-HBV activity: intracellular HBV DNA by real-time PCR in HepG2.117 cells after 3 days of treatment
# Type: cell-based, hepatitis B virus
# experimental conditions: Hepatitis B virus, HepG2.117, 72 h, HepG2.117 cells, 3 days of treatment, intracellular HBV DNA by real-time PCR; mean value; read-out: EC50 (μM, mean value)
Give just the number in µM; leave the unit off.

Consider the following illustrative entries.
# input Please look up its EC50: "C[C@@H]1Cc2c(nc(NC3(c4ccncc4)CC3)n(-c3ccc(S(C)(=O)=O)cc3)c2=O)CN1C(=O)c1ccc(Cl)c(Cl)c1"
# output 3.25

# input Please do the same for COC(=O)C1COCCN1c1ccc(-n2c(NC(C)C)nc3c(c2=O)CCN(C(=O)c2ccc(Cl)c(Cl)c2)C3)cc1 (centres unmarked) as well.
# output 0.72

# input Another compound to look at: "COc1ccc(CNc2nc3c(c(=O)[nH]2)CCN(C(=O)c2ccc(Br)c(Br)c2)C3)cc1"
# output 2.02

# input Also, "COc1ccc(CNc2nc3c(c(=O)[nH]2)CCN(C(=O)c2ccc(Br)cc2)C3)cc1" please.
# output 21.6

Now for the compound whose EC50 we want.
# input Give its EC50 value. Item: "COc1ccc(CNc2nc3c(c(=O)n2-c2ccn[nH]2)CCN(C(=O)c2ccc(Cl)c(Cl)c2)C3)cc1"
# output 1.78

---

# test details: in vitro
# Format: cell-based
# experimental conditions: human, HepG2 or HepG2.117 cells, 3-days incubation (unmarked values), ATPlite; mean value
A collection of compounds and their measured CC50 at 3 days

# input Request the reported CC50 at 3 days associated with "CNC(=O)c1cc(Cl)c(-n2c(NC(C)C)nc3c(c2=O)C[C@@H](C)N(C(=O)c2ccc(Cl)c(Cl)c2)C3)c(Cl)c1"
# output > 50 µM

# input Similarly, COc1ccc(CNc2nc3c(c(=O)n2-c2ccc(S(C)(=O)=O)cc2)C[C@H](c2ccc(F)cc2)N(C(=O)c2ccc(Cl)c(Cl)c2)C3)cc1 (single isomer, unassigned) [Compound C109B] ?
# output > 50 µM

# input One more compound: CC(C)Nc1nc2c(c(=O)n1-c1ccc(S(C)(=O)=O)cc1)C[C@@H](c1ccc(F)cc1)N(C(=O)c1ccc(Cl)c(Cl)c1)C2 (single isomer, unassigned) [Compound C110A]
# output > 50 µM

---

CC50 at 3 days values by entry
# test details: in vitro
# Assay type: cell-based
# experimental conditions: human, HepG2 or HepG2.117 cells, 3-days incubation (unmarked values), ATPlite; mean value

Below, each entry is followed by its recorded CC50 at 3 days result.
# input Look up CC50 at 3 days: COc1ccc(CNc2nc3c(c(=O)[nH]2)C[C@H](C)N(C(=O)c2ccc(Cl)c(Cl)c2)C3)cc1 [Compound C63B]
# output 35.3 µM

# input And for "COc1ccc(CNc2nc3c(c(=O)n2C2CCCCC2)CCN(C(=O)c2ccc(Cl)c(Cl)c2)C3)cc1" ?
# output > 50 µM

Further cases:
# input Need CC50 at 3 days, item "CC(C)Nc1nc2c(c(=O)n1-c1ccc(S(C)(=O)=O)cc1)CCN(C(=O)c1nc3ccccc3[nH]1)C2"
# output > 50 µM

# input Lookup "CNC(=O)c1ccc(-n2c(NC3(C)CC3)nc3c(c2=O)C[C@@H](C)N(C(=O)c2ccc(Cl)c(Cl)c2)C3)cc1"
# output > 50 µM

---

# test details: in vitro
# Assay type: cell-based
# experimental conditions: human, HepG2 or HepG2.117 cells, ATPlite, 3-days incubation (not marked with *), mean value
measurement label: CC50 at 3 days (µM)
Give just the numeric value; µM need not be written.

# input Quick one: CC50 at 3 days for CNC(=O)c1ccc(-n2c(N[C@@H](C)c3ccc(F)cc3F)nc3c(c2=O)C[C@@H](C)N(C(=O)c2ccc(Cl)c(Cl)c2)C3)cc1 (single isomer, unassigned) [Compound C689b] ?
# output 27.3

---

// EC50 lookup, one value per entry
# Tested on: HBV (HepG2.117 cell line, inducibly HBV producing)
# test details: Anti-HBV activity: intracellular HBV DNA by real-time PCR in HepG2.117 cells after 3 days of treatment
# Format: cell-based, hepatitis B virus
# experimental conditions: Hepatitis B virus, HepG2.117, 72 h, HepG2.117 cells, 3 days of treatment, intracellular HBV DNA by real-time PCR; mean value; read-out: EC50 (μM, mean value)

Consider the reported EC50 for these compounds:
# input Which EC50 value is on record for "CC(C)Nc1nc2c(c(=O)n1-c1ccc(-c3ccnnc3)cc1)CCN(C(=O)c1ccc(Cl)c(Cl)c1)C2" ?
# output 0.26 µM

# input Same thing, different compound: "CC(C)Nc1nc2c(c(=O)n1-c1ccc(-c3nccs3)cc1)CCN(C(=O)c1ccc(Cl)c(Cl)c1)C2"
# output 0.56 µM

# input Quick one: "CC(C)Nc1nc2c(c(=O)n1-c1ccc(S(C)(=O)=O)cc1)CCN(C(=O)c1ccc(Cl)c(C(F)(F)F)c1)C2"
# output 0.4 µM

# input // same read-out, input: CNC(=O)c1ccc(-n2c(N[C@@H](C)c3cccnc3)nc3c(c2=O)C[C@@H](C)N(C(=O)c2ccc(Cl)c(Cl)c2)C3)cc1 (single isomer, unassigned) [Compound C377b]
# output 3.95 µM

# input Also "COc1ccc(CNc2nc3c(c(=O)[nH]2)CCN(C(=O)c2ccc(Br)c(F)c2)C3)cc1" , if possible.
# output 10 µM

# input Also "COc1ccc(CNc2nc3c(c(=O)n2C2CCCC2)CCN(C(=O)c2ccc(Cl)c(Cl)c2)C3)cc1" ?
# output 9.37 µM

# input Moving on to "CC(C)Nc1nc2c(c(=O)n1-c1ccc(S(C)(=O)=O)cc1)CCN(C(=O)c1nc3ccccc3o1)C2"
# output > 50 µM

Now for a further compound.
# input EC50 for "COc1ccc(CNc2nc3c(c(=O)n2-c2ccncc2)CCN(C(=O)c2ccc(Cl)c(Cl)c2)C3)cc1" ?
# output 1.23 µM

Every entry's value here was drawn from patent US20230091047A1.
